Target: h-GABA-A α5β3γ2 (Homo sapiens, UniProt P18507+P31644)
Construct: expressed in transfected cells; host or cells: Xenopus laevis oocytes, micro-injected with subunit RNA
Sequence (P31644 32-462): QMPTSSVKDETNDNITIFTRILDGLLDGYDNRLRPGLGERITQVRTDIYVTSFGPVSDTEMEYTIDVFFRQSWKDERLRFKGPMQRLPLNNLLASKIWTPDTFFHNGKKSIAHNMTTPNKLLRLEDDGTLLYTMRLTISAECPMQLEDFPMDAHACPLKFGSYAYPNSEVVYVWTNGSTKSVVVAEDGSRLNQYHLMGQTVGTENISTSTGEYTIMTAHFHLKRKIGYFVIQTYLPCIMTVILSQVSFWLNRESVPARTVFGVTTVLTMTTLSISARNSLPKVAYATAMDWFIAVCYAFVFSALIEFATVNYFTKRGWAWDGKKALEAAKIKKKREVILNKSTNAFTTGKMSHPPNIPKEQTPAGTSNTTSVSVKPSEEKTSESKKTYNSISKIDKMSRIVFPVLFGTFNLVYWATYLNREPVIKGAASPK
Sequence (P28472 26-473 partner): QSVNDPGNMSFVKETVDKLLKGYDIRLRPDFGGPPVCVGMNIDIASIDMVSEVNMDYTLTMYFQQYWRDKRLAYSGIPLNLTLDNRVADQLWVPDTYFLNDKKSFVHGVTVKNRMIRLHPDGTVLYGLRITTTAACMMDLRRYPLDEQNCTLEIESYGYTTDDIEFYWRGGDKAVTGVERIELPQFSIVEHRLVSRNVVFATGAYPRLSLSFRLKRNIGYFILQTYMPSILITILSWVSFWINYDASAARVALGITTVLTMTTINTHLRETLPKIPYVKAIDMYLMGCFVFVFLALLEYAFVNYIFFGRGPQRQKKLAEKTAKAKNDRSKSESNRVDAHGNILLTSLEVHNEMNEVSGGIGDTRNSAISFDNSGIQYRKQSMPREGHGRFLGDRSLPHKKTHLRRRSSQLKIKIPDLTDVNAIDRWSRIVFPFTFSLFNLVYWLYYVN
Sequence (P18507 40-475): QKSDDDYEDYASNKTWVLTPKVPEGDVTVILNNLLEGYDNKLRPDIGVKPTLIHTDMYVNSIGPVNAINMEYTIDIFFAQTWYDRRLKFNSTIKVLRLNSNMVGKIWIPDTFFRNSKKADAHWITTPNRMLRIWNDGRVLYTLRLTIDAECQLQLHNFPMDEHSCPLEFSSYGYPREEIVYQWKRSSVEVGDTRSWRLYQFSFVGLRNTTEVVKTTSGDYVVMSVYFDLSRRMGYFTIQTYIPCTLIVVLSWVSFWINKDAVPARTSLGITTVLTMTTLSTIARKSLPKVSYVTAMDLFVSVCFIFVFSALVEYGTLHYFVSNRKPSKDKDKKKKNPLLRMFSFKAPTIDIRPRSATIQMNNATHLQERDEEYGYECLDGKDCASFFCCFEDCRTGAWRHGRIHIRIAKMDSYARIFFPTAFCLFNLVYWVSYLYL
Assay: Two-electrode voltage clamp electrophysiology in Xenopus oocytes expressing GABAA receptors (modulation of GABA EC20 current)
Assay type: cell-based
Settings: Table 1; % modulation of GABA EC20 = 100*(Fold increase-1)
Kindly apply the following: true (1) if Efficacy (GABA) % is less than 70%, false (0) in every other case.

Take the compound COC1CN(c2cnn(Cc3c(-c4ccc(Cl)cc4F)nnn3C)c(=O)c2)C1 and say whether its Efficacy (GABA) % is less than 70%.
true (1)

Just wondering, is Efficacy (GABA) % of CC(C)OC1CN(c2cnn(Cc3c(-c4ccc(Cl)cc4F)nnn3C)c(=O)c2)C1 below 70%?
true (1)

# TODO verify Efficacy (GABA) % < 70% strictly for this compound: Cn1nnc(-c2ccc(Cl)cc2F)c1Cn1ncc(N2CC(OC3CCC3)C2)cc1=O
false (0)

Is the reported Efficacy (GABA) % for Cn1nnc(-c2ccc(Cl)cc2F)c1Cn1ncc(N2CC(Oc3ccncn3)C2)cc1=O strictly below 70%?
false (0)

Bench note: check whether Cn1nnc(-c2ncc(C(F)(F)F)cn2)c1Cn1ncc(N2CC(OC(F)F)C2)cc1=O shows Efficacy (GABA) % below 70%
false (0)

Report whether reported Efficacy (GABA) % is lower than 70% (strictly) for Cc1ccc(-c2nnn(C)c2Cn2ncc(N3CCOCC3)cc2=O)cn1
false (0)

# TODO verify Efficacy (GABA) % < 70% strictly for this compound: Cn1nnc(-c2ccc(Cl)cc2F)c1Cn1ncc(N2CC(Oc3ccccn3)C2)cc1=O
false (0)

Hello, I'm reviewing records and need to know if Efficacy (GABA) % of Cc1nnn(-c2ccc(Cl)cc2F)c1Cn1ncc(N2Cc3ccccc3C2)cc1=O is below 70%. Could you check?
true (1)

Given the entry Cn1nnc(-c2ccc(Cl)cc2F)c1Cn1ncc(-c2cccc(C#N)n2)cc1=O , would its reported Efficacy (GABA) % be below 70%?
false (0)

In plain terms, does CCn1nnc(-c2ccc(Cl)cc2F)c1Cn1ncc(N2CC(OC(C)(C)C)C2)cc1=O come in under 70% for Efficacy (GABA) %?
false (0)

Please indicate whether the reported Efficacy (GABA) % of Cn1nnc(-c2ccc(Cl)cc2F)c1Cn1ncc(N2CCN(C3CC3)CC2)cc1=O is strictly below 70%.
false (0)

For this compound, is Efficacy (GABA) % lower than 70%? Cn1nnc(-c2ccc(C(F)(F)F)cc2F)c1Cn1ncc(N2CC(OC3CCC3)C2)cc1=O
true (1)

Problem: For the compound Cn1nnc(-c2ccc(Cl)cc2F)c1Cn1ncc(-c2cnn(C3CC3)c2)cc1=O , is Efficacy (GABA) % under 70%?
true (1)

Does this compound meet the criterion Efficacy (GABA) % < 70%? C[C@H]1CN(c2cnn(Cc3c(-c4ccc(Cl)cc4F)nnn3C)c(=O)c2)CCO1
false (0)

Record CCn1nnc(-c2ccc(Cl)cc2F)c1Cn1ncc(N2CCN(C(C)C)[C@@H](C)C2)cc1=O : is its Efficacy (GABA) % strictly below 70%?
false (0)

Please indicate whether the reported Efficacy (GABA) % of Cn1nnc(-c2ccc(Cl)cc2F)c1Cn1ncc(N2CC(Oc3cccnn3)C2)cc1=O is strictly below 70%.
false (0)

Confirm or reject: Efficacy (GABA) % of CCn1nnc(-c2ccc(Cl)cc2F)c1Cn1ncc(N2CC3(CC[C@H](F)CO3)C2)cc1=O lies strictly below 70%
false (0)

Say whether its Efficacy (GABA) % is strictly beneath 70%. Entry: CO[C@@H]1COC2(C1)CN(c1cnn(Cc3c(-c4ccc(Cl)cc4F)nnn3C)c(=O)c1)C2
false (0)

Say whether its Efficacy (GABA) % is strictly beneath 70%. Entry: Cc1nnn(-c2ccc(Cl)cc2)c1Cn1ncc(N2C[C@@H](C)O[C@@H](C)C2)cc1=O
false (0)

Hello, I'm reviewing records and need to know if Efficacy (GABA) % of Cn1nnc(-c2ccc(Cl)cc2F)c1Cn1ncc(N2CC(OCC(F)(F)F)C2)cc1=O is below 70%. Could you check?
true (1)

# strict comparison: is reported Efficacy (GABA) % < 70%? input = CCn1nnc(-c2ccc(Cl)cc2F)c1Cn1ncc(-c2cnn(C3CC3)c2)cc1=O
false (0)

Does the reported Efficacy (GABA) % of the following compound sit strictly below 70%? CCn1nnc(-c2ccc(Cl)cc2F)c1Cn1ncc(N2CC(OC(C)C)C2)cc1=O
false (0)

Input Cc1nnn(-c2ccc(Cl)cc2F)c1Cn1ncc(N2CCO[C@H](C)C2)cc1=O ; condition: Efficacy (GABA) % strictly below 70%. Does it hold?
false (0)

For this compound, is Efficacy (GABA) % lower than 70%? Cc1nnn(-c2ccc(Cl)cc2F)c1Cn1ncc(N2CCN(C(=O)C3CC3)CC2)cc1=O
false (0)

Regarding CCn1nnc(-c2ccc(Cl)cc2F)c1Cn1ncc(N2CC3(CC[C@@H](C)CO3)C2)cc1=O , kindly confirm whether its Efficacy (GABA) % is beneath 70%.
false (0)

is_below(Efficacy (GABA) %, 70%) for CCOC1CN(c2cnn(Cc3c(-c4ncc(C(F)(F)F)cn4)nnn3C)c(=O)c2)C1 ?
false (0)

Given C[C@@H]1CCCN1c1cnn(Cc2c(-c3ccc(Cl)nc3)nnn2C)c(=O)c1 , is recorded Efficacy (GABA) % strictly lower than 70%?
false (0)

Determine whether this compound shows Efficacy (GABA) % lower than 70% (ties excluded): COc1ncc(-c2cnn(Cc3c(C)nnn3-c3ccc(Cl)cc3F)c(=O)c2)cc1Cl
false (0)

Below 70% on Efficacy (GABA) %? Entry Cn1nnc(-c2ccc(Cl)cc2F)c1Cn1ncc(N2CC(Oc3ccnc(Cl)c3)C2)cc1=O
false (0)

Lab note: Efficacy (GABA) % threshold 70%. Does this compound come in strictly under it? CC(C)OC1CN(c2cnn(Cc3c(-c4ncc(C(F)(F)F)cn4)nnn3C)c(=O)c2)C1
true (1)

Please state whether Efficacy (GABA) % is below 70% for CC(C)N1CCN(c2cnn(Cc3c(-c4ccc(Cl)cc4F)nnn3C)c(=O)c2)C[C@@H]1C
false (0)
